Below, each entry is listed alongside its reported Kd.
- Target Entity: T1, hK1 (human tissue kallikrein 1), recombinant (human, UniProt P06870 25-262)
- T1 construct: Expressed in P. pastoris from KLK1 cDNA and purified; enzymatically active; also called KLK1; Recombinant (Pichia) Kallikrein
- Procedure Details: SPR
Reply with just the number (in nM).

Please look at this binder and report its Kd: M0099-E11 (Fab, V domains shown) VH: EVQLLESGGGLVQPGGSLRLSCAASGFTFSHYTMVWVRQAPGKGLEWVSSIYSSGGRTNYADSVKGRFTISRDNSKNTLYLQMNSLRAEDTAVYYCARIVVVPSAQFYFYYGMDVWGQGTTVTVSS VL: DIQMTQSPSTLSASVGDRVTITCRASQSISNWLAWYQQKPGRAPKLLIYKASTLESGVPSRFSGSGSGTEFTLTISSLQPDDFATYYCQHYNSYSLFGQGTKLEIKR
13.2

New cases:
For the binder M0114-G06 (Fab, V domains shown) VH: EVQLLESGGGLVQPGGSLRLSCAASGFTFSYYEMEWVRQAPGKGLEWVSSIRPSGGRTVYADSVKGRFTISRDNSKNTLYLQMNSLRAEDTAVYYCAKGRSNYYGSGSYSPKYFQHWGQGTLVTVSS VL: DIQMTQSPSSLSASVGDRVTITCRASQGISSWLAWYQQRPERAPKSLIYAASSLERGVPSRFRGSGSGTDFTLTISSLQPEDFGTYYCQQYHNFPLTFGGGTRVEINR , report Kd.
0.999

State its Kd for this binder: M0093-F09 (Fab, V domains shown, also called M093-F09) VH: EVQLLESGGGLVQPGGSLRLSCAASGFTFSDYRMWWVRQAPGKGLEWVSYIVPSGGQTSYADSVKGRFTISRDNSKNTLYLQMNSLRAEDTAVYYCARGSAYQRRTYSSGWYSASGRRGTAEYFQHWGQGTLVTVSS VL: AQSALTQPASVSGSPGQSITISCTGTSTDDVGGYNYVSWYQQHPGKAPKLMIYDVINRPSGVSNRFSGSKSGNTASLTISGLQAEDEADYYCSSYTSRGTRVFGTGTKVTVLG
4.66

// provenance: patent US7329737
